Data provenance: PubChem BioAssay

test_method_notes: viability loss in pontine glioma line – cell-based, SU-DIPG-XIII, MIPE5.0, CellTiter-Glo, qHTS, dose response (AID 1347064);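 as to AC50: cells exposed to compound for 48 hours before the viability read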
experimental_context: CellTiter-Glo ATP luminescence
Inconclusive results are not listed. Calls of active or inactive are those of the source. The limit is not given here; nearly all actives have AC50 up to about 23 µM.
parameter_measured: AC50

Sample answers from the record:
>>> df
                              smiles_record  parameter_measured            result
0  Cc1ccc(C(=O)N(CCCN)[C@@H](c2nc3cc(Cl)ccc3c(=O)n2Cc2ccccc2)C(C)C)cc1                AC50   5.9 µM (active)
1  CCOC(=O)N1c2ccc(C(F)(F)F)cc2[C@@H](N(Cc2cc(C(F)(F)F)cc(C(F)(F)F)c2)C(=O)OC)C[C@H]1CC                AC50          inactive
2  COc1cc(Nc2nc3ccccc3nc2NS(=O)(=O)c2ccc(NC(=O)c3ccc(C)c(OC)c3)cc2)cc(OC)c1                AC50          inactive
3  COc1cc2ncnc(Nc3ccc(F)c(Cl)c3)c2cc1NC(=O)/C=C/CN1CCCCC1                AC50  18.6 µM (active)
4  COc1ccc2cc(OCC3(C(=O)O)CN(C(=O)c4ccc(F)cc4)C3)ccc2c1                AC50          inactive

Next, consider the following compound.
Query: Could you share which AC50 value was measured for CCc1c(O)cc(O)c(C(=O)c2ccc(OCCN3CCOCC3)c(OC)c2)c1CC(=O)N(CCOC)CCOC ?
Reply: 0.833 µM (active)
